// data source = ChEMBL document CHEMBL1128923

# SYSTEM NAME: Phospholipase A2, membrane associated (Homo sapiens) (UniProt P14555)
# Sequence (whole entry): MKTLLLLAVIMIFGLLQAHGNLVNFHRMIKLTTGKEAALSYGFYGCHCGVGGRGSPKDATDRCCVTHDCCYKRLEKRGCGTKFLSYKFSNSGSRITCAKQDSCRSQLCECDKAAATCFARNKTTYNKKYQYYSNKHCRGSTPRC
# ASSAY COMMENT: Compound was evaluated for inhibition of phospholipase A2 (PLA2) isolated from human platelets at a concentration of 100 uM
Parameter inhibition: see the listing below.
Please state the figure in %; there is no need to write the unit.

Example entries begin here.
RECORD SMILES: CC1(C)CCC(C)(C)c2cc(NC(=O)c3ccccc3-c3ccccc3C(=O)O)ccc21
SYSTEM NAME: Phospholipase A2, membrane associated (Homo sapiens) (UniProt P14555)
MEASURE UNIT: %
inhibition: 35

RECORD SMILES: CCCCCCCCCCOc1ccc(NC(=O)c2ccccc2-c2ccccc2C(=O)O)cc1OCCCCCCCCCC
SYSTEM NAME: Phospholipase A2, membrane associated (Homo sapiens) (UniProt P14555)
MEASURE UNIT: %
inhibition: 98

RECORD SMILES: O=C(O)c1ccccc1-c1ccccc1C(=O)Nc1ccc2ccccc2c1
SYSTEM NAME: Phospholipase A2, membrane associated (Homo sapiens) (UniProt P14555)
MEASURE UNIT: %
inhibition: 8

RECORD SMILES: CCCCCCCCCCc1ccc(NC(=O)c2ccccc2-c2ccccc2C(=O)O)cc1
SYSTEM NAME: Phospholipase A2, membrane associated (Homo sapiens) (UniProt P14555)
MEASURE UNIT: %
inhibition: 92

RECORD SMILES: CCCCCCCCCCOc1ccc(NC(=O)c2ccccc2-c2ccccc2C(=O)O)cc1OCC(=O)O
SYSTEM NAME: Phospholipase A2, membrane associated (Homo sapiens) (UniProt P14555)
MEASURE UNIT: %
inhibition: 23

RECORD SMILES: CC(C)c1ccc2c(c1)CC[C@H]1C[C@](C)(CNC(=O)c3ccccc3-c3ccccc3C(=O)O)CC[C@]21C
SYSTEM NAME: Phospholipase A2, membrane associated (Homo sapiens) (UniProt P14555)
MEASURE UNIT: %
inhibition: 63

RECORD SMILES: O=C(O)c1ccccc1-c1ccccc1C(=O)NC1CCCCCCC1
SYSTEM NAME: Phospholipase A2, membrane associated (Homo sapiens) (UniProt P14555)
MEASURE UNIT: %
inhibition: 15

Consider the record given below.
Input O=C(O)c1ccccc1-c1ccccc1C(=O)NCCc1c[nH]c2ccc(O)cc12 . Output inhibition: 0

====

Parameter inhibition: see the listing below.
# SYSTEM NAME: Phospholipase A2, membrane associated (Homo sapiens)
# Sequence (whole entry): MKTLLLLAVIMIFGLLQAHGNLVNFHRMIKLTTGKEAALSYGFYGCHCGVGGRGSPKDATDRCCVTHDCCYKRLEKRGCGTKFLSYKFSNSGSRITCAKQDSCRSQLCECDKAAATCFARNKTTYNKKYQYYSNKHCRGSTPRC
# ASSAY COMMENT: Compound was evaluated for inhibition of phospholipase A2 (PLA2) isolated from human platelets at a concentration of 10 uM
Please state the figure in %; there is no need to write the unit.

Input CC1(C)CCC(C)(C)c2cc(NC(=O)c3ccccc3-c3ccccc3C(=O)O)ccc21 . Output inhibition: 14

Input O=C(O)c1ccccc1-c1ccccc1C(=O)NC1CCCCCCC1 . Output inhibition: 2

Input CCCCCCCCCCc1ccc(NC(=O)c2ccccc2-c2ccccc2C(=O)O)cc1 . Output inhibition: 26
